target: Full-length human eIF4E (human, UniProt P06730 1-217); assay: fluorescence polarisation
Sequence (P06730 whole entry): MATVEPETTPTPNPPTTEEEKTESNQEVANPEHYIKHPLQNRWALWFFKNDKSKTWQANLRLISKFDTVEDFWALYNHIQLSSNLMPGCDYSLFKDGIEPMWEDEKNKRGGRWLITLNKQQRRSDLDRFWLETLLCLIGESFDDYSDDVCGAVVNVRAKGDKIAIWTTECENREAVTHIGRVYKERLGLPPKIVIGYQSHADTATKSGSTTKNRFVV
measured_metric: Kd (nM)
Give a bare numeral; the unit nM is implied.

*Q* What measured Kd goes with Ac-KKRYSREFLLGF-NH2 [eIF4G^D5S peptide] ?
*A* 195
